These measurements were taken from PubChem BioAssay (NCI).

Would you kindly list growth for each of these compounds?
- Tested on: SF-268 CNS
- assayComment: NCI-60 one-dose screen, 48 h (100 = growth as untreated, 0 = no growth, -100 = all killed)
- experimentalParameters: 10 µM
- Method: Cells are grown in 96 well plates and exposed to the test compound for 48 hours. Compounds are tested at a single concentration, which is 10^-5 M for most compounds. The reported endpoint is percent growth (GI% or GIPRCNT), where numbers from 0 - 100% represent growth inhibition, and numbers from -100% - 0 represent cell death. For example, a value of 40 represents 60% growth inhibition. A value of 0 means no net growth occurred over the course of the experiment. […]
Compounds without any hit were thinned out: in the full panel of roughly 83,000, 20% have a hit. Active and inactive are the calls of the source. The calls were made as follows: active = growth percent below 10; inactive = the rest.

Some compounds with known growth results, for comparison:
compound: CCOC(=O)C1CCc2c(ccc3ccccc23)N1CCC#N (stereo unspecified)
growth: 113% (inactive)
--
compound: Cc1ccc(C(=O)Nc2cccc(F)c2)cc1NC(=O)C1(c2ncnc3[nH]ccc23)CC1
growth: 95.2% (inactive)
--
compound: O=[N+]([O-])c1ccc(Oc2cccnc2)c([N+](=O)[O-])c1
growth: 97.5% (inactive)
--
compound: COc1cccc(NC(=O)c2sc3nc4c(cc3c2N)C(O)CCC4)c1 (stereo unspecified)
growth: 30.6% (inactive)
--
compound: CCCCCCN(CCCCCC)CC(O)c1ccc2c3c(cccc13)CC2 (stereo unspecified)
growth: 76.4% (inactive)

Need growth of N#CCCN1C/C(=C/c2ccccc2)C(=O)/C(=C/c2ccccc2)C1 , thanks. 24.7% (inactive)

* * *

- System: OVCAR-5 ovarian
- assayComment: NCI-60 one-dose screen, 48 h
- experimentalParameters: 10 µM
About 83,000 compounds went through this panel and 20% of them were active in at least one assay; those are over-represented in the sample as a whole. Active and inactive are the calls of the source. The calls were made as follows: active = growth percent below 10; inactive = the rest.
Outcome field: choose from active, inactive

molecule: S=c1[nH]ccn1-c1c(Cl)cccc1Cl
category: inactive

For this molecule, state the assay outcome: Clc1cc2c(c(CSc3nc4ccccc4n4cccc34)c1)OCOC2 inactive

// repeat for COc1ccc2c(c1)N(CCO)C1=C(C(=O)OC1)C2c1cc(OC)c(OC)c(OC)c1 (stereo not given) and report inactive

What about this molecule? COc1cc(Nc2ncnc(Nc3ccc4c(n3)NC(=O)C(C)(C)O4)n2)cc(OC)c1OC inactive

Follow-up entry: CCN(CC)CCCC(C)Nc1nc(-c2ccc(OC)cc2)nc2cc(Cl)ccc12 (stereo not given) inactive

Queued: O=C(Nc1ccncc1)C(=O)c1cn(S(=O)(=O)c2cccc3ccccc23)c2ccccc12 inactive

Field entry: O=S(=O)(NCCCNc1nccc(-c2c(-c3ccc(F)cc3)nc3sccn23)n1)c1ccc2ccccc2c1 inactive

Another molecule to check: COc1ccc2nc3ccccc3c(NCCNCC(C)O)c2c1 (stereo not given) active

Note, next up: O=[N+]([O-])c1ccc(Oc2cc(Cl)c(Cl)cc2Cl)c(C(F)(F)F)c1 inactive

Please give the result for CC(C)N(CCNc1nc(C(Cl)(Cl)Cl)nc2cc(Cl)ccc12)C(C)C too. active

And what about the molecule c1ccc([I+]c2ccccc2)cc1 ? inactive

Again, but for CCOC(=O)C(=Cc1ccc(Br)cc1)C(=O)OCC active

Item: COc1ccc(-n2c(SCc3cc(OC)c(OC)c(OC)c3)nc3ccc(C)cc3c2=O)cc1 inactive

Same question, c1ccc([C@H]2CN3CCSC3=N2)cc1 this time inactive

How about this molecule: COc1ccc2c(c1)/C(=C\c1c[nH]c3ccc(OC)cc13)C(=O)N2 inactive
